- measurement.protocol: Human microsome stability assay
- Type: in vitro ADME
- protocol.conditions: 1 μM test compound, 0.5 mg/mL liver microsomal protein, 37° C.
measured.endpoint: Clearance of Human microsome (mL/min/kg)

{"smiles.code": "C[C@@H]1CN(c2ccc(C#N)c3ncccc23)C[C@H](CN2CC3(C2)CN(c2ccnc(C4CC4)c2)C3)O1", "scale.unit": "mL/min/kg", "Clearance of Human microsome": 6.39}
{"smiles.code": "Cc1cc(N2CC3(CN(C[C@H]4CN(c5ccc(C#N)c6ncccc56)C[C@@H](C)O4)C3)C2)cc(CO)n1", "scale.unit": "mL/min/kg", "Clearance of Human microsome": 6.35}
{"smiles.code": "Cc1cc(NC2CN(C[C@H]3CN(c4ccc(C#N)c5ncccc45)C[C@@H](C)O3)C2)cc(C)n1", "scale.unit": "mL/min/kg", "Clearance of Human microsome": 6.15}
{"smiles.code": "Cc1cc(N2C[C@@H](O)[C@H](NC[C@H]3CN(c4ccc(C#N)c5ncccc45)C[C@@H](C)O3)C2)cc(CO)n1", "scale.unit": "mL/min/kg", "Clearance of Human microsome": 7.61}

----------
- assay.system: hERG channel (Homo sapiens)
- Construct: expressed in transfected cells; host or cells: CHO (Chinese hamster ovary), CHOhERG
- measurement.protocol: hERG channel inhibition assay (patch-clamp, CHOhERG cells)
- Assay type: cell-based
- protocol.conditions: safety ratio
measured.endpoint: hERG IC20/TLR8 IC50
Respond with the number and no other words.

As a guide, the following entries are already answered.
{"compound": "Cc1cc(NC2CCN(C[C@H]3CN(c4ccc(C#N)c5ncccc45)C[C@@H](C)O3)C2)cc(CO)n1 (stereo partly drawn)", "hERG IC20/TLR8 IC50": 109.9}
{"compound": "C[C@@H]1CN(c2ccc(C#N)c3ncccc23)C[C@H](CN2CCN(c3ccc(Cl)cc3)CC2)O1 [Example R2, reference compound]", "hERG IC20/TLR8 IC50": 0.8}

Inquiry: Look up hERG IC20/TLR8 IC50: Cc1cc(N2CC(NC[C@H]3CN(c4ccc(C#N)c5ncccc45)C[C@@H](C)O3)C2)cc(CO)n1
Reply text: 322.0

Inquiry: Subsequent entry: Cc1cc(NC2CCN(C[C@H]3CN(c4ccc(C#N)c5ncccc45)C[C@@H](C)O3)CC2)cc(CO)n1
Reply text: 217.7

Inquiry: Subsequent entry: CC(O)c1cc(N2CC3(CN(C[C@H]4CN(c5ccc(C#N)c6ncccc56)C[C@@H](C)O4)C3)C2)ccn1 (stereo partly drawn)
Reply text: 52.1

Inquiry: Subsequent entry: COc1ccc(N2CCN(C[C@H]3CN(c4ccc(C#N)c5ncccc45)C[C@@H](C)O3)CC2)cc1 [Example R1, reference compound]
Reply text: 6.2

----------
- assay.system: hERG channel (Homo sapiens, UniProt Q12809)
- Sequence (Q12809 whole entry): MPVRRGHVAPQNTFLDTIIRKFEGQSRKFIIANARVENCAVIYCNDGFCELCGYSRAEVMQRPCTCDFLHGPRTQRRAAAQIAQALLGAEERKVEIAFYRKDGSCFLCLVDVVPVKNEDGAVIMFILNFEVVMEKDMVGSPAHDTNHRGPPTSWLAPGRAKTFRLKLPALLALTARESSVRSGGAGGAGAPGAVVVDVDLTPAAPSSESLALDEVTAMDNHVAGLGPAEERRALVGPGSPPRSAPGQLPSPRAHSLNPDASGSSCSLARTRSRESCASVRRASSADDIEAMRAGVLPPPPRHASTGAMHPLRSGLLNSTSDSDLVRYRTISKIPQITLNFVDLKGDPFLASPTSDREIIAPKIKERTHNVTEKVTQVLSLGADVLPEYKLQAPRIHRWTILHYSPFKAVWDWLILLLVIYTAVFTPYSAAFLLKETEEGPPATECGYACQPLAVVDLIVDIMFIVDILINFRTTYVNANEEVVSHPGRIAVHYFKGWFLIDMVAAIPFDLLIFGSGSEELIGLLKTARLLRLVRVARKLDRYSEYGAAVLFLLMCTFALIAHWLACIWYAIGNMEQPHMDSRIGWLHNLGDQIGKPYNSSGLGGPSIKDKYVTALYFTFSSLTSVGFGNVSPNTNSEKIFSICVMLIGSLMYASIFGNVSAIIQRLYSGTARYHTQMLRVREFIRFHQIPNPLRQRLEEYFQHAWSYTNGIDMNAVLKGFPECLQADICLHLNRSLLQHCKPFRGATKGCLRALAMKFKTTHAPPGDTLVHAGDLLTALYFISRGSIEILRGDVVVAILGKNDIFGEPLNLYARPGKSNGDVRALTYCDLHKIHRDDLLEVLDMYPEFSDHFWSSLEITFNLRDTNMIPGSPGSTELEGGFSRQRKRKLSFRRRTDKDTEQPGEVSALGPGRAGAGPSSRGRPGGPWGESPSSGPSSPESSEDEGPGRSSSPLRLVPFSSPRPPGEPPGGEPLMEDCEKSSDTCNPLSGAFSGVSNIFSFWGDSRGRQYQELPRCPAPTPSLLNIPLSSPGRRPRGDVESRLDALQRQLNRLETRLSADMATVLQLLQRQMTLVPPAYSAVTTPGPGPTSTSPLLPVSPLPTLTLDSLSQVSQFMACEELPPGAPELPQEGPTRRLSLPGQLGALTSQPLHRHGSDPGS
- measurement.protocol: hERG channel inhibition assay (patch-clamp, CHOhERG cells)
- protocol.conditions: CHOhERG cells, whole-cell patch-clamp
measured.endpoint: IC50

As a guide, the following entries are already answered.
{"molecule": "Cc1cc(NC2CN(C[C@H]3CN(c4ccc(C#N)c5ncccc45)C[C@@H](C)O3)C2)cc(C)n1 [Example 7]", "result": "> 20 µM"}
{"molecule": "C[C@@H]1CN(c2ccc(C#N)c3ncccc23)C[C@H](CN2CCN(c3cc(N)nc(CO)c3)CC2)O1 [Example 45]", "result": "> 20 µM"}

Inquiry: Look up IC50: Cc1cc(N2CC(NC[C@H]3CN(c4ccc(C#N)c5ncccc45)C[C@@H](C)O3)C2)cc(CO)n1 [Example 30]
Reply text: > 10 µM

Inquiry: Subsequent entry: Cc1cc(NC2CCN(C[C@H]3CN(c4ccc(C#N)c5ncccc45)C[C@@H](C)O3)CC2)cc(CO)n1 [Example 5]
Reply text: > 20 µM

Inquiry: Subsequent entry: CC(O)c1cc(N2CC3(CN(C[C@H]4CN(c5ccc(C#N)c6ncccc56)C[C@@H](C)O4)C3)C2)ccn1 (stereo partly shown) [Example 46]
Reply text: > 10 µM

Inquiry: Subsequent entry: Cc1cc(NC2CCN(C[C@H]3CN(c4ccc(C#N)c5ncccc45)C[C@@H](C)O3)C2)cc(CO)n1 (stereo partly shown) [Example 6]
Reply text: > 20 µM

Inquiry: Subsequent entry: Cc1cc(N2CC3(CN(C[C@H]4CN(c5ccc(C#N)c6ncccc56)C[C@@H](C)O4)C3)C2)cc(CO)n1 [Example 1]
Reply text: > 20 µM
